Documented logP across a set of molecules
experimental-protocol: physchem
measurement-setup: octanol/water
Description: Partition coefficient, log P of the compound

smiles-text	logP
COc1cc(CC(=O)O)ccc1OCCCOc1ccc(CC(=O)N(C)CCc2ccc(Br)cc2)cc1	5.62
O=C(O)Cc1ccc(OCCCCOc2ccc(CC(=O)NCCc3ccccc3)cc2)cc1	5.44
COc1cc(CC(=O)O)ccc1OCCCOc1ccc(CC(=O)N(C)CCc2ccccc2)cc1	4.73
COc1cc(CC(=O)O)ccc1OCCCCOc1ccc(CC(=O)N(C)CCc2ccccc2)cc1	5.22
Cc1cccc(CCN(C)C(=O)Cc2ccc(OCCCCOc3ccc(CC(=O)O)cc3)cc2)c1	6.2
CN(CCc1ccccc1)C(=O)Cc1ccc(OCCCCOc2ccc(CC(=O)O)cc2)cc1	5.65
COc1cc(CC(=O)O)ccc1OCCCCOc1ccc(CC(=O)NCCc2ccccc2)cc1	5.01
COc1cc(CC(=O)O)ccc1OCCCCOc1ccc(CC(=O)N(C)CCc2ccc(Br)cc2)cc1	6.11
Cc1ccc(CCN(C)C(=O)Cc2ccc(OCCCCOc3ccc(CC(=O)O)cc3)cc2)cc1	6.2
CN(CCc1ccccc1)C(=O)Cc1ccc(OCCCOc2ccc(CC(=O)O)cc2)cc1	5.16
CN(CCc1ccccc1)C(=O)Cc1ccc(OCCCCOc2ccc(CC(=O)O)cc2Cl)cc1	6.3
CN(CCc1ccccc1)C(=O)Cc1ccc(OCCCOc2ccc(CC(=O)O)cc2Cl)cc1	5.81

The measurements presented in this section are drawn from ChEMBL document CHEMBL1148014.
